Target: SARS-CoV-2 spike receptor binding domain (RBD), wild type (SARS-CoV-2, UniProt P0DTC2 319-539)
Test: ELISA on coated RBD protein
Quantity name: EC50

C043 (antibody, V domains shown) VH: QLVQSGPEVKKPGTSVKVSCKASGFTFYNSAVQWVRQARGQRLEWVGWIVVGSGNTDYAQKFQERVTMTRDLSTNTAYMEVNSLRSEDTAVYYCAAPYCSGGTCLDGFDIWGQGTMVTVSS VL: EIVLTQSPGTLSLSPGERGTLSCRASQSVRSNYLAWYKQRPGQAPRLLVYGASSRATGIPDRFSGSGSGTDFTLTISRLEPEDFAVYYCQQYGSSPWTFGQGTKVEIK :: 12.1 ng/mL

// lookup EC50 for C709 (antibody, V domains shown) VH: QVQLVQSGAEVRKPGASVKVSCMASGYTFNTYDINWVRQGTGQGLEWMGWMNPNSGNTGHAQKFQGRVAMTVNTSMNTAYMELSSLRSEDTAVYYCARGADMLNVAVGADFDYWGQGTLVTVSS VL: QSALTQPPSASGSPGQSVTISCTGTSSDVGGYNFVSWFQQHPGKAPKLMIYEVSKRPSGVPDRFSGSKSANTASLTVSGLQAEDEADYFCSSYAGSNNWVFGGGTKLTVL 7.56 ng/mL

// lookup EC50 for C044 (antibody, V domains shown) VH: EVQLVESGGGLVQPGGSLRLSCAASGFTFSSYSMNWVRQAPGKGLEWVSYISSSSSTIYYADSVKGRFTISRDNAKNSLYLQMNSLRDEDTAVYYCAREAHDGALTDYGDYLNWFDPWGQGTLVTVSS VL: SYELTQPPSVSVAPGKTARITCGGNNIGSKSVHWYQQKPGQAPVLVIYYDSDRPSGIPERFSGSNSGNTATLTISRVEAGDEADYYCQVWDSSSDHLYWVFGGGTKLTVL 1820 ng/mL

// lookup EC50 for C050 (antibody, V domains shown) VH: EVQLVESGGGLFQPGGSLRLSCAASGFSVRNNYVSWVRQAPGKGLEWVSVIYSGGTTYYADSVKGRFTISRDISENTLYLQMNSLRAEDTAVYYCAREGDVEGLHDFWSGYSRDRYYFDYWGQGTLVTVSS VL: QSALTQPASVSGSPGQSIIISCTGTSGDIGGYNYVSWYQQHPGKAPKLMIYDVSFRPSGVSNRFSGSKSDNTASLTISGLQAEDEADYYCSSFTGNNTRVFGTGTKVTVL 1.93 ng/mL

// lookup EC50 for C054 (antibody, V domains shown) VH: EVQLVESGGGLIQPGGSLRLSCAASGFTVSNNYMSWVRQAPGKGLEWVSVIYSGGSTYDADSVKGRFTISRDNSKNTLYLQMNSLSAEDTAVYYCAREGDVEGYYDFWSGYSRDRYYFDYWGQGTLVTVSS VL: QSALTQPASVSGSPGQSITISCTGTSSDVGGYNYVSWYQQHPGKAPKLMIYDVSNRPSGVSNRFSGSKSGNTASLTISGLQAEDEADYYCSSYTSSSARVFGTGTKVTVL 1.58 ng/mL

// lookup EC50 for C143 (antibody, V domains shown) VH: EVQLVESGGGLVQPGGSLRLSCAASGFSVSTKYMTWVRQAPGKGLEWVSVLYSGGSDYYADSVKGRFTISRDNSKNALYLQMNSLRVEDTGVYYCARDSSEVRDHPGHPGRSVGAFDIWGQGTMVTVSS VL: QSALTQPASVSGSPGQSITISCTGTSNDVGSYTLVSWYQQYPGKAPKLLIFEGTKRSSGISNRFSGSKSGNTASLTISGLQGEDEADYYCCSYAGASTFVFGGGTKLTVL 2.01 ng/mL
